Assay: Mouse blood and tissue PK (LC/MS-MS)
Format: in vivo
Conditions: mouse, tumor, oral, 10 mg/kg, NCI-H441 xenograft tumor, study NCI-H441#6, 10 mg/kg, 24h; read-out: RMC-6236 (nM) Tumor
OUTCOME MEASURE: concentration at 24 h (nM)
// return numeric value only (unit: nM, not printed)

# input If you can, please state the reported concentration at 24 h value of CCn1c(-c2cc(N3CCN(C)CC3)cnc2[C@H](C)OC)c2c3cc(ccc31)-c1csc(n1)C[C@H](NC(=O)[C@H]1C[C@@H]1C)C(=O)N1CCC[C@H](N1)C(=O)OCC(C)(C)C2 [RMC-6236] .
# output 519

* * *

Test: Mouse blood and tissue PK (LC/MS-MS)
Format: in vivo
Settings: BALB/c nude, mouse, ear skin, oral, 25 mg/kg, sheet Ear Skin, model Capan-2, study Capan-2 #3_PHA 2023, 25 mg/kg, 48h; read-out: RMC-6236 (nM) Tumor
OUTCOME MEASURE: concentration at 48 h (nM)
Just the number in nM, nothing appended.

# input For CCn1c(-c2cc(N3CCN(C)CC3)cnc2[C@H](C)OC)c2c3cc(ccc31)-c1csc(n1)C[C@H](NC(=O)[C@H]1C[C@@H]1C)C(=O)N1CCC[C@H](N1)C(=O)OCC(C)(C)C2 [RMC-6236] , what is its reported concentration at 48 h?
# output 147

* * *

Assay: Mouse blood and tissue PK (LC/MS-MS)
Type: in vivo
Settings: BALB/c nude, mouse, whole blood, po, 10 mg/kg, Capan-2 (10 mg/kg), single dose
Protocol: For single-dose PKPD study, mice were randomized and assigned into groups (n = 3/dose/time point). […] Blood and tissues, including the tumor, brain, colon, ear skin, and muscle, were harvested at indicated time points. […] The whole blood, tumor, brain, colon, and ear skin concentrations of RMC-6236 were determined using liquid chromatography–tandem mass spectrometry (LC/MS-MS) methods. […] Concentrations reported as below the quantification limit were treated as zero for PK analysis. […]
OUTCOME MEASURE: Cmax (ng/mL)
Use ng/mL as the unit, but write only the number.

# input // query Cmax value for entry CCn1c(-c2cc(N3CCN(C)CC3)cnc2[C@H](C)OC)c2c3cc(ccc31)-c1csc(n1)C[C@H](NC(=O)[C@H]1C[C@@H]1C)C(=O)N1CCC[C@H](N1)C(=O)OCC(C)(C)C2
# output 950

* * *

Test: Mouse blood and tissue PK (LC/MS-MS)
Assay type: in vivo
Conditions: mouse, tumor, oral, 25 mg/kg, NCI-H441 xenograft tumor, study NCI-H441#6, 25 mg/kg, 24h; read-out: RMC-6236 (nM) Tumor
OUTCOME MEASURE: concentration at 24 h (nM)
Entry rule: numbers only, all in nM.

# input Reported concentration at 24 h for CCn1c(-c2cc(N3CCN(C)CC3)cnc2[C@H](C)OC)c2c3cc(ccc31)-c1csc(n1)C[C@H](NC(=O)[C@H]1C[C@@H]1C)C(=O)N1CCC[C@H](N1)C(=O)OCC(C)(C)C2 [RMC-6236] : what is it?
# output 989

* * *

Assay: Mouse blood and tissue PK (LC/MS-MS)
Type: in vivo
Conditions: mouse, tumor, po, 25 mg/kg, NCI-H358 (25 mg/kg), single dose; read-out: Tumor t1/2 (converted)
OUTCOME MEASURE: half-life (h)
Please reply with the bare figure in h and do not write the unit itself.

# input Dear colleague, I am looking for the recorded half-life of the following molecule: CCn1c(-c2cc(N3CCN(C)CC3)cnc2[C@H](C)OC)c2c3cc(ccc31)-c1csc(n1)C[C@H](NC(=O)[C@H]1C[C@@H]1C)C(=O)N1CCC[C@H](N1)C(=O)OCC(C)(C)C2
# output 10.2

* * *

Assay: Mouse blood and tissue PK (LC/MS-MS)
Type: in vivo
Conditions: mouse, tumor, oral, 50 mg/kg, Model Validation Dataset; 50mg/kg_study6; 8 h; read-out: Tumor Concentration
OUTCOME MEASURE: concentration at 8 h (µM)
# unit: µM | format: bare number

# input Look up concentration at 8 h for this compound: CCn1c(-c2cc(N3CCN(C)CC3)cnc2[C@H](C)OC)c2c3cc(ccc31)-c1csc(n1)C[C@H](NC(=O)[C@H]1C[C@@H]1C)C(=O)N1CCC[C@H](N1)C(=O)OCC(C)(C)C2 [RMC-6236]
# output 4.8

* * *

Assay: Mouse blood and tissue PK (LC/MS-MS)
Type: in vivo
Conditions: mouse, tumor, oral, 50 mg/kg, HPAC #3; 50 mg/kg, 24h; individual animals; read-out: RMC-6236 (nM) Tumor
OUTCOME MEASURE: concentration at 24 h (nM)
Provide the reading as a plain figure in nM.

# input Name the recorded concentration at 24 h for CCn1c(-c2cc(N3CCN(C)CC3)cnc2[C@H](C)OC)c2c3cc(ccc31)-c1csc(n1)C[C@H](NC(=O)[C@H]1C[C@@H]1C)C(=O)N1CCC[C@H](N1)C(=O)OCC(C)(C)C2 .
# output 3810

* * *

Assay: Mouse blood and tissue PK (LC/MS-MS)
Type: in vivo
Conditions: mouse, whole blood, oral, 50 mg/kg, Model Validation Dataset; 50mg/kg_study6; 0.5 h
OUTCOME MEASURE: concentration at 0.5 h (nM)
State the answer as a number, implicitly in nM.

# input Quick one: concentration at 0.5 h of CCn1c(-c2cc(N3CCN(C)CC3)cnc2[C@H](C)OC)c2c3cc(ccc31)-c1csc(n1)C[C@H](NC(=O)[C@H]1C[C@@H]1C)C(=O)N1CCC[C@H](N1)C(=O)OCC(C)(C)C2 ?
# output 1420

* * *

Assay: Mouse blood and tissue PK (LC/MS-MS)
Format: in vivo
Settings: mouse, tumor, oral, 3 mg/kg, NCI-H441 xenograft tumor, study NCI-H441#6, 3 mg/kg, 24h; read-out: RMC-6236 (nM) Tumor
Protocol: For single-dose PKPD study, mice were randomized and assigned into groups (n = 3/dose/time point). […] Blood and tissues, including the tumor, brain, colon, ear skin, and muscle, were harvested at indicated time points. […] The whole blood, tumor, brain, colon, and ear skin concentrations of RMC-6236 were determined using liquid chromatography–tandem mass spectrometry (LC/MS-MS) methods. […] Concentrations reported as below the quantification limit were treated as zero for PK analysis. […]
OUTCOME MEASURE: concentration at 24 h (nM)
Give the number; nM is assumed, so skip it.

# input Look up concentration at 24 h for this molecule: CCn1c(-c2cc(N3CCN(C)CC3)cnc2[C@H](C)OC)c2c3cc(ccc31)-c1csc(n1)C[C@H](NC(=O)[C@H]1C[C@@H]1C)C(=O)N1CCC[C@H](N1)C(=O)OCC(C)(C)C2 [RMC-6236]
# output 159

* * *

Assay: Mouse blood and tissue PK (LC/MS-MS)
Format: in vivo
Settings: BALB/c nude, mouse, tumor, oral, 10 mg/kg, Capan-2, study Capan-2 #3_PHA 2020, 10 mg/kg, 48h; read-out: RMC-6236 (nM) Tumor
OUTCOME MEASURE: concentration at 48 h (nM)
Your answer should be a plain number; it is taken to be in nM.

# input Return reported concentration at 48 h; argument: CCn1c(-c2cc(N3CCN(C)CC3)cnc2[C@H](C)OC)c2c3cc(ccc31)-c1csc(n1)C[C@H](NC(=O)[C@H]1C[C@@H]1C)C(=O)N1CCC[C@H](N1)C(=O)OCC(C)(C)C2
# output 101

* * *

Assay: Mouse blood and tissue PK (LC/MS-MS)
Type: in vivo
Conditions: BALB/c nude, mouse, ear skin, oral, 10 mg/kg, sheet Ear Skin, model Capan-2, study Capan-2 #3_PHA 2023, 10 mg/kg, 2h; read-out: RMC-6236 (nM) Tumor
OUTCOME MEASURE: concentration at 2 h (nM)
Write it as a number; the unit nM goes unstated.

# input What value of measured concentration at 2 h is listed for CCn1c(-c2cc(N3CCN(C)CC3)cnc2[C@H](C)OC)c2c3cc(ccc31)-c1csc(n1)C[C@H](NC(=O)[C@H]1C[C@@H]1C)C(=O)N1CCC[C@H](N1)C(=O)OCC(C)(C)C2 ?
# output 469

* * *

Assay: Mouse blood and tissue PK (LC/MS-MS)
Assay type: in vivo
Settings: mouse, tumor, oral, 25 mg/kg, NCI-H441 xenograft tumor, study NCI-H441#6, 25 mg/kg, 48h; read-out: RMC-6236 (nM) Tumor
OUTCOME MEASURE: concentration at 48 h (nM)
Respond numerically; units are nM and should not be typed.

# input # get_value(readout='concentration at 48 h', item= CCn1c(-c2cc(N3CCN(C)CC3)cnc2[C@H](C)OC)c2c3cc(ccc31)-c1csc(n1)C[C@H](NC(=O)[C@H]1C[C@@H]1C)C(=O)N1CCC[C@H](N1)C(=O)OCC(C)(C)C2 )
# output 641
